Experiment: Human HepG2 cell viability assay in 384 well format
Type: toxicity, cell-based
Design: dose 125 nL, time 70.5 hour; concentration not given beside the values
Details: HepG2 cells, read-out: Inhibition
Reported cytotoxicity at 70.5 h by item:
API: value field is a number in %; no unit string.

>>> reportedresult("CN1CCN([C@@H]2CCN(C3CCOC3)[C@H]2Cc2cnn(C)c2)CC1 (stereo partly specified)")
-12.4
>>> reportedresult("O=C(c1cscn1)N1CCC2(CCN(Cc3nccs3)CC2)C1")
-23.5
>>> reportedresult("CCc1nc(N)nc(NCc2cnn3cccnc23)c1C")
-0.745

Query: I'd like to know its cytotoxicity at 70.5 h. The compound in question is "Cc1ccc(C)c(S(=O)(=O)CCN2CCc3c(ncn3C)C2)c1"
Reply: 16

Query: I'd like to know its cytotoxicity at 70.5 h. The compound in question is Cn1cc(C(=O)N2CCCC2c2noc(C3CC3)n2)c2ccccc21 (stereo unspecified)
Reply: -3.41

Query: I'd like to know its cytotoxicity at 70.5 h. The compound in question is O=C(NCC1CCS(=O)(=O)C1)N1CCN(c2cnccn2)CC1 (stereo unspecified)
Reply: 3.28
